Test system: biotinyl-Trp-oxazolone
Test: self-aminoacylation, catalytic enhancement (BWO) (fold over background); higher = more active; k-Seq, kA / k0A0; sequences stand for … in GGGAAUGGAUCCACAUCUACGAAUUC…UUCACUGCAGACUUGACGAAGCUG
Variants at the floor of the assay were thinned out.
Value Type: self-aminoacylation
// response body must contain only the number

Examples with their reported self-aminoacylation follow.
AUUAACCUAGGUCAUCCGGUG [Fam2.2 aminoacylation ribozyme variant]; 5.68
AUGACACUGGUCAUCGAGUGA [Fam2.1 aminoacylation ribozyme variant]; 6.47
CCGUACUUCAAGCAAUCGGUC [Fam1B.1 aminoacylation ribozyme variant]; 18.4

The measured self-aminoacylation associated with CCACGCUUCAAGCAAUCGGUU [Fam1B.1 aminoacylation ribozyme variant] reads 16.7

The measured self-aminoacylation associated with CUAUUUGAAACAAUCGGUCUG [Fam1A.1 aminoacylation ribozyme variant] reads 0.463

The measured self-aminoacylation associated with GCACACUUCCAGCAAUCGGUC [Fam1B.1 aminoacylation ribozyme variant] reads 2.11

The measured self-aminoacylation associated with CUUCUUCAAACAAUCGGUCGG [Fam1A.1 aminoacylation ribozyme variant] reads 7.44

----------
Tested on: biotinyl-Leu-oxazolone
Assay: self-aminoacylation, catalytic enhancement (BLO) (fold over background); higher = more active; k-Seq, kA / k0A0; sequences stand for … in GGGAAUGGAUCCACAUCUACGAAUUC…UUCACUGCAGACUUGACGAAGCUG
Variants at the floor of the assay were thinned out.
Value Type: self-aminoacylation
// response body must contain only the number

Examples with their reported self-aminoacylation follow.
AUUACCCUGGUCAUUGAGUGC [Fam2.1 aminoacylation ribozyme variant]; 1.15
CCACACUUCUAUCAAUCGGUC [Fam1B.1 aminoacylation ribozyme variant]; 0.521
AUUCACCUAGGCCAUCGGGUU [Fam2.2 aminoacylation ribozyme variant]; 1.03
CAACUUCAAUCAAUCGGUCUG [Fam1A.1 aminoacylation ribozyme variant]; 2.03
CUCCUGCAAACAAUCGGUCUG [Fam1A.1 aminoacylation ribozyme variant]; 0.904

The measured self-aminoacylation associated with AAUCACCUAGCUCAUCGGGUG [Fam2.2 aminoacylation ribozyme variant] reads 2.31

The measured self-aminoacylation associated with UCGCACUUCAAGCAAUCGGUC [Fam1B.1 aminoacylation ribozyme variant] reads 2.14

The measured self-aminoacylation associated with AUUACCUUGGUCAGCGAGUGA [Fam2.1 aminoacylation ribozyme variant] reads 5.38

The measured self-aminoacylation associated with CCACACUUCAAGCAGUCUGUC [Fam1B.1 aminoacylation ribozyme variant] reads 0.353

The measured self-aminoacylation associated with UUUAACCUGGUCAUCGAGUGA [Fam2.1 aminoacylation ribozyme variant] reads 5.8

The measured self-aminoacylation associated with AAGUUUGCCACUAGUCGCAAG [Fam3.1 aminoacylation ribozyme variant] reads 0.973

The measured self-aminoacylation associated with AUUACCCUGGUCAUCGAUUGU [Fam2.1 aminoacylation ribozyme variant] reads 0.736

The measured self-aminoacylation associated with AAGUUUCCUAUUAGUCGCAAG [Fam3.1 aminoacylation ribozyme variant] reads 1.22

The measured self-aminoacylation associated with AUUCACCUAGCACAUCGGGUG [Fam2.2 aminoacylation ribozyme variant] reads 3.31

----------
// reported self-aminoacylation for each item listed
Test system: biotinyl-Leu-oxazolone
Experiment: self-aminoacylation, catalytic enhancement (BLO) (fold over background); higher = more active; k-Seq, kA / k0A0; sequences stand for … in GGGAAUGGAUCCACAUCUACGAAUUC…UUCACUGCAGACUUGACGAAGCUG
This sample holds only a part of the variants without activity.
// response body must contain only the number

GUUCACCUAGGUCAUCGGGUG [Fam2.2 aminoacylation ribozyme variant]; 32.5
AUCACCCUGGUCACCGAGUGA [Fam2.1 aminoacylation ribozyme variant]; 15.4
AAGAUAGCUAAUAGUCGCAAG [Fam3.1 aminoacylation ribozyme variant]; 1.82
AUUACCCUGGUCCUCGAGCGA [Fam2.1 aminoacylation ribozyme variant]; 1.25
AUUACCCUGUUGAUCGAGUGA [Fam2.1 aminoacylation ribozyme variant]; 13

The measured self-aminoacylation associated with CGACUUCAAACAAGCGGUCUG [Fam1A.1 aminoacylation ribozyme variant] reads 1.11

The measured self-aminoacylation associated with CUAGUUCAAACAAACGGUCUG [Fam1A.1 aminoacylation ribozyme variant] reads 0.91

The measured self-aminoacylation associated with AUUUCCCUAGUCAUCGAGUGA [Fam2.1 aminoacylation ribozyme variant] reads 6.58

The measured self-aminoacylation associated with AUCACCGUGGUCAUCGAGUGA [Fam2.1 aminoacylation ribozyme variant] reads 6.15

----------
Test system: biotinyl-Ile-oxazolone
Assay: self-aminoacylation, catalytic enhancement (BIO) (fold over background); higher = more active; k-Seq, kA / k0A0; sequences stand for … in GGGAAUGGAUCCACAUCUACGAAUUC…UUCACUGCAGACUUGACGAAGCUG
Variants at the floor of the assay were thinned out.
// reported self-aminoacylation for each item listed
// response body must contain only the number

CCACUCUUCAAGCAAUAGGUC [Fam1B.1 aminoacylation ribozyme variant]; 0.784

The measured self-aminoacylation associated with UCACACUUCAAGCAGUCGGUC [Fam1B.1 aminoacylation ribozyme variant] reads 0.827

The measured self-aminoacylation associated with AUGCACCUAGGUCAUUGGGUG [Fam2.2 aminoacylation ribozyme variant] reads 2.33

The measured self-aminoacylation associated with AAGUUUGCUAAUAAUCGCAAC [Fam3.1 aminoacylation ribozyme variant] reads 0.8

The measured self-aminoacylation associated with AUUACCCCGGUCAUUGAGUGA [Fam2.1 aminoacylation ribozyme variant] reads 3.22

The measured self-aminoacylation associated with AUUCACCUCGGUCAUCGGGUG [Fam2.2 aminoacylation ribozyme variant] reads 4.59

The measured self-aminoacylation associated with AAGUUUGCUGAUAGUCCCAAG [Fam3.1 aminoacylation ribozyme variant] reads 1.17

The measured self-aminoacylation associated with UUACUUCAAACAAUUGGUCUG [Fam1A.1 aminoacylation ribozyme variant] reads 1.43

The measured self-aminoacylation associated with AGGUUUGCUAAUAGUAGCAAG [Fam3.1 aminoacylation ribozyme variant] reads 1.49

The measured self-aminoacylation associated with CUGCUUCAAACCAUCGGUCUG [Fam1A.1 aminoacylation ribozyme variant] reads 0.708

The measured self-aminoacylation associated with CCACACUUCAAACAAUCGGCC [Fam1B.1 aminoacylation ribozyme variant] reads 1.77

The measured self-aminoacylation associated with CUCCUACAAACAAUCGGUCUG [Fam1A.1 aminoacylation ribozyme variant] reads 0.836

The measured self-aminoacylation associated with CUAGCUCAAACAAUCGGUCUG [Fam1A.1 aminoacylation ribozyme variant] reads 0.817

The measured self-aminoacylation associated with AUUAGCCUGGUCAUCAAGUGA [Fam2.1 aminoacylation ribozyme variant] reads 2.74

The measured self-aminoacylation associated with AUUUCCCUGGUCAUCGAGGGA [Fam2.1 aminoacylation ribozyme variant] reads 1.47

The measured self-aminoacylation associated with CCACACUUCAAGCAAUCGCGC [Fam1B.1 aminoacylation ribozyme variant] reads 2.08

The measured self-aminoacylation associated with AUUCACCAAGGUCAUCGGAUG [Fam2.2 aminoacylation ribozyme variant] reads 1.09

The measured self-aminoacylation associated with AUUACCAUGGUCCUCGAGUGA [Fam2.1 aminoacylation ribozyme variant] reads 2.48

The measured self-aminoacylation associated with AUUGCCCUGGUAAUCGAGUGA [Fam2.1 aminoacylation ribozyme variant] reads 3.71

The measured self-aminoacylation associated with AGUCACUUAGGUCAUCGGGUG [Fam2.2 aminoacylation ribozyme variant] reads 4.65

The measured self-aminoacylation associated with ACUCCCCUAGGUCAUCGGGUG [Fam2.2 aminoacylation ribozyme variant] reads 8.61

The measured self-aminoacylation associated with CUACUUCAAUCAAUCAGUCUG [Fam1A.1 aminoacylation ribozyme variant] reads 0.942

The measured self-aminoacylation associated with CCACACAUCAAGAAAUCGGUC [Fam1B.1 aminoacylation ribozyme variant] reads 0.732

The measured self-aminoacylation associated with AUUACGCUAGUCAUCGAGUGA [Fam2.1 aminoacylation ribozyme variant] reads 2.48

----------
System: biotinyl-Trp-oxazolone
Assay: self-aminoacylation, catalytic enhancement (BWO) (fold over background); higher = more active; k-Seq, kA / k0A0; sequences stand for … in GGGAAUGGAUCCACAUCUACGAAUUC…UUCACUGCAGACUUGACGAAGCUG
This sample holds only a part of the variants without activity.
Categories are defined by ranges of self-aminoacylation, namely bin 0 = under 1, bin 1 = from 1 up to 3, bin 2 = 3 and over

# example entries with known answers
AUCAACCUGGUCAUCGAGUGA [Fam2.1 aminoacylation ribozyme variant]; bin 2
AAGUUUGCCAAUAUUCGCAAG [Fam3.1 aminoacylation ribozyme variant]; bin 1
CUACCUCAAACAAUCGGACUG [Fam1A.1 aminoacylation ribozyme variant]; bin 1
CUUCACCUAGAUCAUCGGGUG [Fam2.2 aminoacylation ribozyme variant]; bin 2

Which category does the recorded self-aminoacylation put CUACUUCAAACUAUGGGUCUG [Fam1A.1 aminoacylation ribozyme variant] in?
bin 0

Which category does the recorded self-aminoacylation put AAUUUUGCUAAUAGUCGCUAG [Fam3.1 aminoacylation ribozyme variant] in?
bin 1

Which category does the recorded self-aminoacylation put GAGUUUGCUAAUAGUCGCAGG [Fam3.1 aminoacylation ribozyme variant] in?
bin 2

Which category does the recorded self-aminoacylation put CCACACUACAAGGAAUCGGUC [Fam1B.1 aminoacylation ribozyme variant] in?
bin 0

Which category does the recorded self-aminoacylation put AUCACCCUGGUCACCGAGUGA [Fam2.1 aminoacylation ribozyme variant] in?
bin 2
